test: Solubility in phosphate buffer at pH 7.4; format: physicochemical; settings: phosphate buffer, pH 7.4, aqueous buffer
MEASURED_PARAMETER: solubility (µM)

- COMPOUND: "CCc1cc2c(cc1CC)CC(NC[C@H](O)c1ccc(O)c3[nH]c(=O)ccc13)C2 [Indacaterol]"
  UNIT_TEXT: "µM"
  solubility: 25

1 = CC(C)(C)NCC(O)c1cc(O)cc(O)c1 (stereo not shown) [Terbutaline]
2 = COc1cc(NC(=O)CCN2CCC(OC(=O)Nc3ccccc3-c3ccccc3)CC2)c(Cl)cc1CNC[C@H](O)c1ccc(O)c2[nH]c(=O)ccc12 [Batefenterol]
Prompt: API: POST /compare with 1 and 2 ; response names the item with higher solubility. Write down the label of the entry you select.
Completion: 1
(1: 6830 µM, 2: 28 µM)
